# Test system: HTT mRNA
# PROCEDURE SUMMARY: Gene panel canonical junction qPCR assay, decrease in CJ mRNA, Table 3
# Type: cell-based
# MEASUREMENT CONDITIONS: decrease in CJ mRNA levels, canonical junction qPCR, gene panel
I'd be grateful if you could share measured IC50 for these entries.

Tested on HTT mRNA: COc1nc2c(C(=O)Nc3cc(Cl)c4nn(C)cc4c3)ccc(N3C[C@H](C)N[C@@H](C)C3)c2s1 [Compound 785] . Observed IC50: 0.1 to 1 µM

Tested on HTT mRNA: COc1nc2c(C(=O)Nc3cn4cc(C)nc(C)c4n3)ccc(N3CCC(NC4CC4)CC3)c2s1 [Compound 667, 2,2,2-trifluoroacetate] . Observed IC50: > 10 µM

Tested on HTT mRNA: Cc1cn2cc(NC(=O)c3ccc(N4CCC(NC5CC5)CC4)c4cn(C)nc34)nc2c(CCS(=O)(=O)N(C)C)n1 [Compound 805] . Observed IC50: > 10 µM

Tested on HTT mRNA: CCNC1CCN(c2cc(F)c(C(=O)Nc3cn4ccnc4cc3OC)c3nn(C)cc23)CC1 [Compound 701] . Observed IC50: > 10 µM

Tested on HTT mRNA: CCNC1CCN(c2ccc(C(=O)Nc3cc4cn(C)nc4cc3OC)c3nc(OC)sc23)CC1 [Compound 669] . Observed IC50: 1 to 10 µM

Tested on HTT mRNA: Cc1cn2cc(NC(=O)c3ccc(N4CCC(NC5CC5)CC4)c4cn(C)nc34)nc2c(CN(C)S(C)(=O)=O)n1 [Compound 703, 2,2,2-trifluoroacetate] . Observed IC50: > 10 µM

Tested on HTT mRNA: COc1nc2c(C(=O)Nc3cc4cn(C)nc4c(C)c3O)ccc(N3C[C@H](C)N[C@@H](C)C3)c2s1 [Compound 726] . Observed IC50: > 10 µM

Tested on HTT mRNA: COc1nc2c(C(=O)Nc3cc(F)c4nn(C)cc4c3)ccc(N3CCN4CCC[C@H]4C3)c2s1 [Compound 745] . Observed IC50: 0.1 to 1 µM
